The values you see were collected from paper PMC5655141.

target: BiP* FL (full-length T229G BiP, BiP(1-641)) (Cricetulus griseus, UniProt G3I8R9, T229G); construct: gene HSPA5; full-length two-domain BiP, residues 1-641 as printed, non-cleavable N-terminal 6xHis tag, pET28a, E. coli BL21(DE3); ATPase-deficient T229G; non-AMPylated; assay: ITC; assay type: binding
Sequence (G3I8R9 1-641 T229G): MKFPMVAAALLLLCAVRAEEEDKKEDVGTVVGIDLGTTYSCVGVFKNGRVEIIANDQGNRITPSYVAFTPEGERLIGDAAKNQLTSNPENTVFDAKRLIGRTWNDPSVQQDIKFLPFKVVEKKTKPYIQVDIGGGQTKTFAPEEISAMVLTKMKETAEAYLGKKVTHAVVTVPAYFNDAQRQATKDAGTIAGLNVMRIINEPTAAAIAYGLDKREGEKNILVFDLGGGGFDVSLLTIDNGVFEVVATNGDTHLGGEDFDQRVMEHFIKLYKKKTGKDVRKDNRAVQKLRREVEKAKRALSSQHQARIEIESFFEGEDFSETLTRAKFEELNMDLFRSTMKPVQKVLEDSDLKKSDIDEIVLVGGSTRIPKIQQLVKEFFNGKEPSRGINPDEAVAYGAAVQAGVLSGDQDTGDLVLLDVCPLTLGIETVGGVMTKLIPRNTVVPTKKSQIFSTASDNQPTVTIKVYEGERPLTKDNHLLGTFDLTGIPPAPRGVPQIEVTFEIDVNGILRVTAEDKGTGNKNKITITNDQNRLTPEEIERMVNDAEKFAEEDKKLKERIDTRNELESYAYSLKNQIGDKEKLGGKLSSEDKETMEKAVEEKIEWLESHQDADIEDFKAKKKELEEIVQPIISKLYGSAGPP
measurementKind: pKd
Conceptually, pKd converts a concentration in mol/L into minus its log10.

[Q] Given the entry `Nc1ncnc2c1ncn2[C@@H]1O[C@H](COP(=O)(O)OP(=O)(O)O)[C@@H](O)[C@H]1O` , report its measured pKd.
[A] 5.24
